Below: a set of entries, each annotated with reported log10 IC50.
- TGT: full length SGK1 (Homo sapiens, UniProt O00141)
- Construct: 125 μM full length SGK1 (Life Technologies Part #PR7358A); purchased Life Technologies PR7358A
- PROCEDURE DETAILS: SGK1 inhibition Assay A (Caliper LabChip electrophoretic separation of fluorescent peptide substrate and phosphorylated product)
- Type: biochemical
- SETTINGS: Assay A; 20 μM ATP, 40 min incubation; read-out: SGK1 IC50
Log10 applied to IC50; unit prior to transform: nM.

Past entries and their recorded results:
                                   molecule  recorded_number
0  CC(=O)N1CC=C(c2cc(N3CCC[C@@H](NC(=O)c4cccc(N5CCN(CC(F)F)CC5)n4)C3)c3c(N)ncnn23)C1             1.61
1  COCCOc1cc(Cl)sc1C(=O)N[C@@H]1CCCN(c2cc(-c3ccc(C(N)=O)c(F)c3)n3ncnc(N)c23)C1             0.70
2  N#Cc1ccc(-c2cc(N3CCC[C@@H](NC(=O)c4sc(C(F)F)cc4OC4COC4)C3)c3c(N)ncnn23)cn1             0.85
3  Nc1ncnn2c(-c3ccnc(C(F)F)c3)cc(N3CCC[C@@H](NC(=O)c4cccs4)C3)c12             0.60
4  CC(=O)N1CC=C(c2cc(N3CCC[C@@H](NC(=O)c4sc(Cl)cc4OC4CCNC(C)(C)C4)C3)c3c(N)ncnn23)C1 (mixture of isomers)             1.00

Next, consider the following molecule.
// `CN(C)CCOc1cc(Cl)sc1C(=O)N[C@@H]1CCCN(c2cc(-c3ccn4nnnc4c3)n3ncnc(N)c23)C1` : log10 IC50 value = 0.48

* * *

- TGT: full length SGK1 (Homo sapiens)
- Construct: 125 μM full length SGK1 (Life Technologies Part #PR7358A); purchased Life Technologies PR7358A
- Sequence (O00141 1-431): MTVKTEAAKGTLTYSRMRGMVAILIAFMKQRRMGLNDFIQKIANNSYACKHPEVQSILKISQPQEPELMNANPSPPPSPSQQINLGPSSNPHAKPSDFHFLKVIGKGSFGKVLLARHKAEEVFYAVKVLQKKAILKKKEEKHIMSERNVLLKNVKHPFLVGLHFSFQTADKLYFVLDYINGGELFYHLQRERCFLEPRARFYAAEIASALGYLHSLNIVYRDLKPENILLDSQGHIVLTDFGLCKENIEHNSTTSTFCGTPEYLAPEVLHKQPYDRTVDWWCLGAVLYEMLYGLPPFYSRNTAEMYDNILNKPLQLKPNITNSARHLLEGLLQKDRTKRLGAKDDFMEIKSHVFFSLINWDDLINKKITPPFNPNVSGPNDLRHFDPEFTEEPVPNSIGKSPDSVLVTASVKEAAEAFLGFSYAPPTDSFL
- PROCEDURE DETAILS: SGK1 inhibition Assay A (Caliper LabChip electrophoretic separation of fluorescent peptide substrate and phosphorylated product)
- Assay type: biochemical
- SETTINGS: Assay A; 20 μM ATP, 40 min incubation; read-out: SGK1 IC50
pIC50: −log10 of the molar value.
Decision: pIC50 compared against 7; not below it gives Y, below it gives N.

>>> df
                                   compound  category_label
0  CC(=O)N1CC=C(c2cc(N3CCC[C@@H](NC(=O)C4CC(F)(F)C4)C3)c3c(N)ncnn23)C1 [Example 711]               N
1  Nc1ncnn2c(-c3ccc(=O)n(CC(F)F)c3)cc(N3CCC[C@@H](NC(=O)c4sc(C(F)F)cc4N4CC5(COC5)C4)C3)c12 [Example 316]               Y
2  CN(C)CCOc1c(C(=O)N[C@@H]2CCCN(c3cc(-c4ccc(C(N)=O)nc4)n4ncnc(N)c34)C2)sc2ccccc12 [Example 664]               Y

Qu. Does CS(=O)(=O)c1ccc(-c2cc(N3CCC[C@@H](C(=O)Nc4ccccc4)C3)c3c(N)ncnn23)cc1 [Example 105] have a reported pIC50 of at least 7?
Ans. N

Qu. Please indicate if the recorded pIC50 for CN(C)CCOc1cc(C(F)F)sc1C(=O)N[C@@H]1CCCN(c2cc(-c3cncnc3)n3ncnc(N)c23)C1 [Example 307] meets or exceeds 7.
Ans. Y

* * *

- TGT: full length SGK1 (Homo sapiens, UniProt O00141)
- Construct: 125 μM full length SGK1 (Life Technologies Part #PR7358A); purchased Life Technologies PR7358A
- PROCEDURE DETAILS: SGK1 inhibition Assay A (Caliper LabChip electrophoretic separation of fluorescent peptide substrate and phosphorylated product)
- Assay type: biochemical
- SETTINGS: Assay A; 20 μM ATP, 40 min incubation; read-out: SGK1 IC50
Listed next: entries and their corresponding IC50.
The response must be a number in nM with no trailing unit.

In [3]: df
Out[3]:
                            smiles_notation  units  recorded_number
0  Nc1ncnn2c(-c3ccnc(C(F)F)c3)cc(N3CCC[C@@H](NC(=O)c4cc5ccccc5[nH]4)C3)c12     nM                1
1  COC(=O)N1CC=C(c2cc(N3CCC[C@@H](NC(=O)c4cc5ccc(C(F)(F)F)cc5[nH]4)C3)c3c(N)ncnn23)C1     nM              188

Consider `COC(=O)N1CC=C(c2cc(N3CCC[C@@H](NC(=O)c4sc(Cl)cc4OC4CCN(C5CC5)CC4)C3)c3c(N)ncnn23)C1` . Its measured IC50 is 6

* * *

- TGT: full length SGK1 (Homo sapiens)
- Construct: 125 μM full length SGK1 (Life Technologies Part #PR7358A); purchased Life Technologies PR7358A
- PROCEDURE DETAILS: SGK1 inhibition Assay A (Caliper LabChip electrophoretic separation of fluorescent peptide substrate and phosphorylated product)
- Format: biochemical
- SETTINGS: Assay A; 20 μM ATP, 40 min incubation; read-out: SGK1 IC50
Counter-ions that a name gives are not always drawn.
REPORTED METRIC: log10 of IC50 (log10 of the value in nM)
Hello, just confirming the data are log10 of IC50 with units of nM.

>>> df
                                   molecule  reported_metric  recorded_number
0  CN1CC=C(c2cc(C(F)F)sc2C(=O)N[C@@H]2CCCN(c3cc(-c4ccc(C(N)=O)c(F)c4)n4ncnc(N)c34)C2)CC1 [Example 323]    log10 of IC50             1.28

Here's the next entry for you.
Noted for CN(C)CCOc1cc(Cl)sc1C(=O)N[C@@H]1CCCN(c2cc(-c3ccc(-n4cnnn4)cc3)n3ncnc(N)c23)C1 [Example 187, TFA] : its log10 of IC50 reads 0.78

* * *

- TGT: full length SGK1 (Homo sapiens, UniProt O00141)
- Construct: 125 μM full length SGK1 (Life Technologies Part #PR7358A); purchased Life Technologies PR7358A
- PROCEDURE DETAILS: SGK1 inhibition Assay A (Caliper LabChip electrophoretic separation of fluorescent peptide substrate and phosphorylated product)
- Assay type: biochemical
- SETTINGS: Assay A; 20 μM ATP, 40 min incubation; read-out: SGK1 IC50
REPORTED METRIC: pIC50
pIC50 is a log-scale quantity: -log10 of the concentration expressed in molar.

Measured pIC50, `C=Cc1cc(C)sc1C(=O)N[C@@H]1CCCN(c2cc(-c3ccnc(F)c3)n3ncnc(N)c23)C1` : 7.92

* * *

- TGT: full length SGK1 (Homo sapiens, UniProt O00141)
- Construct: 125 μM full length SGK1 (Life Technologies Part #PR7358A); purchased Life Technologies PR7358A
- PROCEDURE DETAILS: SGK1 inhibition Assay A (Caliper LabChip electrophoretic separation of fluorescent peptide substrate and phosphorylated product)
- Type: biochemical
- SETTINGS: Assay A; 20 μM ATP, 40 min incubation; read-out: SGK1 IC50
Consider the following compounds and their measured IC50 readings.
// units = nM; emit number, no label

In [3]: df
Out[3]:
                                   compound  reported_metric  units  recorded_number
0  CC(=O)N1CC=C(c2cc(N3CCC[C@@H](NC(=O)c4sc(Cl)cc4OC4CNC4)C3)c3c(N)ncnn23)C1             IC50     nM                6
1  CC(C)N1CCC(c2cc(C(F)F)sc2C(=O)N[C@@H]2CCCN(c3cc(-c4ccc(C(N)=O)nc4)n4ncnc(N)c34)C2)C1 (stereo partly shown)             IC50     nM              254
2  CS(=O)(=O)c1ccc(-c2cc(N3CCC[C@@H](NC(=O)c4cn5c(n4)CCCC5)C3)c3c(N)ncnn23)cc1             IC50     nM              735
3  Nc1ncnn2c(-c3ccc(C=O)cc3)cc(N3CCC[C@@H](NC(=O)c4ccc(Cl)s4)C3)c12             IC50     nM              0.4
4  COC(=O)N1CC=C(c2cc(N3CCC[C@@H](NC(=O)c4sc5ccccc5c4OC4CCN(C)CC4)C3)c3c(N)ncnn23)C1             IC50     nM               18
5  Nc1ncnn2c(-c3cncnc3)cc(N3CCC[C@@H](NC(=O)c4sc(Cl)cc4OCC(=O)N4CCCC4)C3)c12             IC50     nM              120

Let's switch to this compound now.
response.value for `Nc1ncnn2c(-c3cncnc3)cc(N3CCC[C@@H](NC(=O)c4sc(C(F)F)cc4N4CC5(COC5)C4)C3)c12` (field: IC50) = 374
